Source of measurements: patent US8691865B2

Listed here: items and their measured pIC50.
# measurement-target: human Cav2.2 (Homo sapiens, UniProt Q00975)
# Sequence (Q00975 whole entry): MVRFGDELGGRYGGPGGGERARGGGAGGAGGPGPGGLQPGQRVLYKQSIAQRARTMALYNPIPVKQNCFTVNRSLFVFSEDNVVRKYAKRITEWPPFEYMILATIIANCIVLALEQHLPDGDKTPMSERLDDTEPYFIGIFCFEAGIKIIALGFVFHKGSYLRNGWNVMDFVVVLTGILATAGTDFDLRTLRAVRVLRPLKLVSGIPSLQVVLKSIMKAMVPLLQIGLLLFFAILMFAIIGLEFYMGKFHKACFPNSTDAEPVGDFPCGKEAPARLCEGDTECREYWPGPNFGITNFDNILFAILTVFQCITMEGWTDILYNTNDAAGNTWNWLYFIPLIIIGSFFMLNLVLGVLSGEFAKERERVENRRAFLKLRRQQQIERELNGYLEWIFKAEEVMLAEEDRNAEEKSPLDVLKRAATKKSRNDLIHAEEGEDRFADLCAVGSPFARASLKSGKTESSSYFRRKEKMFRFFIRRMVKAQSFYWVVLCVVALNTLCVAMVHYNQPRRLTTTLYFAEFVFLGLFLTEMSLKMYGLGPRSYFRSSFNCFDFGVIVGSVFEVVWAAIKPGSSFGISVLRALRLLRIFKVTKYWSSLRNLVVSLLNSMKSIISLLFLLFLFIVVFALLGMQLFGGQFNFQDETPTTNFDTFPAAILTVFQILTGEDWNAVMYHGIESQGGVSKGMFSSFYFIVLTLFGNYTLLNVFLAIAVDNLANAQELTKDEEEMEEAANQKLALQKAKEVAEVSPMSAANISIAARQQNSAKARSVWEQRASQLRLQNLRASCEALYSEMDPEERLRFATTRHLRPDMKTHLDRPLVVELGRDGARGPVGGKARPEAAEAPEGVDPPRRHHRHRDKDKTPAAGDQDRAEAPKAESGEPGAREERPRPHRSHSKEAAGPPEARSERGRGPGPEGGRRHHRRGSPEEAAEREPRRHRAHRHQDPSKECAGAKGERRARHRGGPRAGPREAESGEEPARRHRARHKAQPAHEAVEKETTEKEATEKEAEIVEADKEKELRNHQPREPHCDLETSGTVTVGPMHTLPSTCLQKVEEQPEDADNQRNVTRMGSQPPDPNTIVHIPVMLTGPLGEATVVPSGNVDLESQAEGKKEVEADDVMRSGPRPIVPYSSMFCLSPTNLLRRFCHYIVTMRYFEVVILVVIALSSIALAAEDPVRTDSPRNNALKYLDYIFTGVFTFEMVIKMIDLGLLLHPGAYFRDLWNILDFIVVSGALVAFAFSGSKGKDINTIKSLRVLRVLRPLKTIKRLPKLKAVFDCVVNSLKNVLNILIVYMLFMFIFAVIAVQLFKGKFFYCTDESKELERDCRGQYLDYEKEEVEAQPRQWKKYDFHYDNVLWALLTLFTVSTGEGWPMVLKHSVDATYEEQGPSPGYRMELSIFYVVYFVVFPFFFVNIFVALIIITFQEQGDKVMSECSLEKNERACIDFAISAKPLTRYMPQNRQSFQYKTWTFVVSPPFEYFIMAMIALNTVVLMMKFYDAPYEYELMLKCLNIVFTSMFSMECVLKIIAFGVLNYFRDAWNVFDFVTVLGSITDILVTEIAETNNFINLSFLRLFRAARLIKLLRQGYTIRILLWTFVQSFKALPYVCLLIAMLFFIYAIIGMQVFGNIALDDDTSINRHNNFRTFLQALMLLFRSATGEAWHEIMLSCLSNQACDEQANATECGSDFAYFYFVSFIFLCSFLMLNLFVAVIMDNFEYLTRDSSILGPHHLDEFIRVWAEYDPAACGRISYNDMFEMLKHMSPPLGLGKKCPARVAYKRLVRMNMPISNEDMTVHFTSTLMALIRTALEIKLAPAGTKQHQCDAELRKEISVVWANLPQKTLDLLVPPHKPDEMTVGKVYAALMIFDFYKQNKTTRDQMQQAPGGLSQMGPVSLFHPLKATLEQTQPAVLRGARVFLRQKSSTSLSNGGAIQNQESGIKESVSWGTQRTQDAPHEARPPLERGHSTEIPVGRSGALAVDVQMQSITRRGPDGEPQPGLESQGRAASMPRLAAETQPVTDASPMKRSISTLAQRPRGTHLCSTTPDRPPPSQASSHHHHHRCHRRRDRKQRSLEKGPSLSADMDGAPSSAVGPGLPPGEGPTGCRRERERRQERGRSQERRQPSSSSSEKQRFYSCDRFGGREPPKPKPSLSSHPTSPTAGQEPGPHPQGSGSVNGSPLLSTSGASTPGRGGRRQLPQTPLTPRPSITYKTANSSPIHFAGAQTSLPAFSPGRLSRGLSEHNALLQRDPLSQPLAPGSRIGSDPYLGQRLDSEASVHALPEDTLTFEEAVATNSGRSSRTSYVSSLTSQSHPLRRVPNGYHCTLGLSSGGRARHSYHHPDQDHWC
# Sequence (P54289 25-956 partner limits assumed): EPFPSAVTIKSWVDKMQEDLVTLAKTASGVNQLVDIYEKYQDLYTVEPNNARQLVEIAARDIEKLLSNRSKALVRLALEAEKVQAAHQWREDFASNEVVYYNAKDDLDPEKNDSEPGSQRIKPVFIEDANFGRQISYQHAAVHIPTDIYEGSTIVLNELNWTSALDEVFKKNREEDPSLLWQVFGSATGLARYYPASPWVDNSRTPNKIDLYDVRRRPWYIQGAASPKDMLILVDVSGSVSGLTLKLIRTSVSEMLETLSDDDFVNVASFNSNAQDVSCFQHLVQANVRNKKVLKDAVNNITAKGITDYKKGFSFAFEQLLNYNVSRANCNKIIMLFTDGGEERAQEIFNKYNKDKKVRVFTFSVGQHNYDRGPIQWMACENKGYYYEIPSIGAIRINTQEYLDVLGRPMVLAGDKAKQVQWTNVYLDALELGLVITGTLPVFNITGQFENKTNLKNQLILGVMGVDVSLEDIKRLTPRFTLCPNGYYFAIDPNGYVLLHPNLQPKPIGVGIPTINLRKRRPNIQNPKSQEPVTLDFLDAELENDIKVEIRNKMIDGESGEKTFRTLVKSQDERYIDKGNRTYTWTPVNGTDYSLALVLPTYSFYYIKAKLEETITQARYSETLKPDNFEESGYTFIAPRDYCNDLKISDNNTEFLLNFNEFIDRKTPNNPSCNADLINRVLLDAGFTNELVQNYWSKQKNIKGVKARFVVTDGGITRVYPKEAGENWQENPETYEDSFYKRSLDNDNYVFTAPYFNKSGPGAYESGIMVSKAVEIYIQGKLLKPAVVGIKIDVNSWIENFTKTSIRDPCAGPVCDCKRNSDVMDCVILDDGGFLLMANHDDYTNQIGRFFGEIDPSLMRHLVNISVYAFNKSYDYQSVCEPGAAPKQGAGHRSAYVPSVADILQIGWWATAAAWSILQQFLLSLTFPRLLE
# Sequence (P54289 957-1103 partner limits assumed): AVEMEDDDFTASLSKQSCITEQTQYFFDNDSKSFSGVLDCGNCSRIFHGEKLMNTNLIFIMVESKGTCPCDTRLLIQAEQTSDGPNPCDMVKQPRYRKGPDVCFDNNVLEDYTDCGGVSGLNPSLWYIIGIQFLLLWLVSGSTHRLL
# Sequence (P54284 whole entry partner): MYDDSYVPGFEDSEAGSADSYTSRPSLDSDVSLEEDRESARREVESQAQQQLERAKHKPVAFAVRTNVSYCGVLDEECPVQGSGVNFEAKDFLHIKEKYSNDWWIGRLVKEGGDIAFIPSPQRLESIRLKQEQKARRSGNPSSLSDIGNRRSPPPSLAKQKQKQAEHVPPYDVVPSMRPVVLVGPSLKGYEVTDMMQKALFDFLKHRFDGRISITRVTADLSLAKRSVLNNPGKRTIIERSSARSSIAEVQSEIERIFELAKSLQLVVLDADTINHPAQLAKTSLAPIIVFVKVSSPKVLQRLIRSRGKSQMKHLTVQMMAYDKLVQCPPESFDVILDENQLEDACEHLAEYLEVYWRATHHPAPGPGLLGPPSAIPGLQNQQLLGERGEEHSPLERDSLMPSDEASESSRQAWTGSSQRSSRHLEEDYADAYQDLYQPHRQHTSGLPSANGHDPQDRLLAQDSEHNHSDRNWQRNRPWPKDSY
# experimental-details: Assessment of calcium channel activity using FLIPR (Ca2+ influx in IMR32 cells)
# Assay type: cell-based
# Description: (i) In Vitro Methods—Assessment of Calcium Channel Activity Using FLIPR: The IMR32 cells were maintained in MEM media containing 10% (v/v) FBS, 1% (v/v) antibiotic/antimitotic, 1% (v/v) sodium pyruvate and 1% (v/v) MEM NEAA. […] To determine the IC50 values, the percent inhibition of the compound at each concentration was determined relative to the activity in the absence of inhibitor, and data was fitted using non-linear regression sigmoidal dose response curve analysis with GraphPad Prism®.
pIC50: −log10 of the molar value.

| compound | op | pIC50 |
| --- | --- | --- |
| CN[C@@H](CC(C)C)C(=O)N[C@H]1CC[C@@H]2CN(c3ccc(C(F)(F)F)cn3)C[C@@H]21 | = | 5.54 |
| NCC(=O)N[C@H]1CC[C@@H]2CN(c3ccc(C(F)(F)F)cc3)C[C@@H]21 | < | 5.52 |
| CC(C)(C)C[C@H](NCC1CC1)C(=O)N[C@H]1CC[C@@H]2CN(c3ccc(C(F)(F)F)cn3)C[C@@H]21 | = | 6.34 |
| CC(C)CC(C(=O)NC1CCC2CN(Cc3ccc(C(F)(F)F)c(F)c3)CC21)N(C)C(=O)OC(C)(C)C (stereo not shown) | = | 5.69 |
